# IC50 annotations
biological target: Sodium-dependent serotonin transporter (Rattus norvegicus); test: Inhibition of rat SERT-mediated uptake
Sequence (P31652 whole entry): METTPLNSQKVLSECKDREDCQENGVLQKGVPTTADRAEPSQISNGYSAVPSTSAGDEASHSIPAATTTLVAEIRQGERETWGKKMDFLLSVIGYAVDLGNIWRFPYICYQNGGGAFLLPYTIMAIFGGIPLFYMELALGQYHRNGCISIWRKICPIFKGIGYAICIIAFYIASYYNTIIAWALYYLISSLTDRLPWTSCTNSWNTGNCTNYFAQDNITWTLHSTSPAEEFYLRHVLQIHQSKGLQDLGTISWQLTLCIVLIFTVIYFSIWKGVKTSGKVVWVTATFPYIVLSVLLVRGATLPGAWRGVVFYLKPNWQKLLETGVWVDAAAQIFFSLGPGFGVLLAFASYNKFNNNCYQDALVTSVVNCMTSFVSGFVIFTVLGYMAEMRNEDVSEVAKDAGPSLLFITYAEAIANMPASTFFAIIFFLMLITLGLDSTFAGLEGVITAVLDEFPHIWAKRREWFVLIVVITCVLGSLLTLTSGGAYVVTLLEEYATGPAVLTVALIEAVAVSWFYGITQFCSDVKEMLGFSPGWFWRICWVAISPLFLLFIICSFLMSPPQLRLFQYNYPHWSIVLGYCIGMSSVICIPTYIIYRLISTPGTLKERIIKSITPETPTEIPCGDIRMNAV

- NC(=O)C[S+]([O-])Cc1ccccc1-c1ccc(Cl)cc1 (single isomer, unassigned; (-)): > 300 µM

Proceeding to the next molecule to report its IC50.
Query (molecule): NC(=O)C[S+]([O-])Cc1ccccc1-c1ccc(Cl)cc1 (single isomer, unassigned; (+)) ; field requested: IC50 > 300 µM

* * *

target: CYP1A1 (Homo sapiens); test: Inhibition of CYP1A1 in human microsome at 100 uM; type: ADME, microsomes; details: human microsomes
Sequence (P04798 whole entry): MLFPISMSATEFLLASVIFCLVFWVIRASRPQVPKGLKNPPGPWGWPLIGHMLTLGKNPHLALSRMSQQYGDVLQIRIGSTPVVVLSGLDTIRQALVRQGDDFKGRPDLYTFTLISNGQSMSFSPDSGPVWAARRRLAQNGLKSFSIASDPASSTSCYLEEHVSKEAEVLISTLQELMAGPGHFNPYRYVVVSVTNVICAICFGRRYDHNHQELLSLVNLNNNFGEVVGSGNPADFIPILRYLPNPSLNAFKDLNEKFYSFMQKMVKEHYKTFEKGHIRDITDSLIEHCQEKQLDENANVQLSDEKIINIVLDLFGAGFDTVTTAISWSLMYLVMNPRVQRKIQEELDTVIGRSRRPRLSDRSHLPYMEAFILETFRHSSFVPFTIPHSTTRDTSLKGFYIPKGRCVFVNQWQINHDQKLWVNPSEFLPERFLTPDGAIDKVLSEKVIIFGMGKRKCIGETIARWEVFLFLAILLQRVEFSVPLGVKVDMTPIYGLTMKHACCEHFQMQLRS
recorded endpoint: inhibition at 100 µM (%)
Return type: number; implicit unit %.

Kindly state the measured inhibition at 100 µM obtained for NC(=O)C[S+]([O-])Cc1ccccc1-c1ccc(Cl)cc1 (single isomer, unassigned; (-)) with CYP1A1 (Homo sapiens). 14

* * *

molecular target: Sodium-dependent dopamine transporter (Rattus norvegicus); assay: Inhibition of rat DAT-mediated uptake
recorded endpoint: pIC50
Worth noting: pIC50 values are minus log10 of concentrations stated in mol/L.

What is its pIC50 for Sodium-dependent dopamine transporter (Rattus norvegicus)? Entry: NC(=O)C[S+]([O-])Cc1ccccc1-c1ccc(Cl)cc1 (single isomer, unassigned; (+)) 5.42

* * *

target: Transporter (Rattus norvegicus, UniProt Q63380); test: Inhibition of rat NET-mediated uptake
Sequence (Q63380 whole entry): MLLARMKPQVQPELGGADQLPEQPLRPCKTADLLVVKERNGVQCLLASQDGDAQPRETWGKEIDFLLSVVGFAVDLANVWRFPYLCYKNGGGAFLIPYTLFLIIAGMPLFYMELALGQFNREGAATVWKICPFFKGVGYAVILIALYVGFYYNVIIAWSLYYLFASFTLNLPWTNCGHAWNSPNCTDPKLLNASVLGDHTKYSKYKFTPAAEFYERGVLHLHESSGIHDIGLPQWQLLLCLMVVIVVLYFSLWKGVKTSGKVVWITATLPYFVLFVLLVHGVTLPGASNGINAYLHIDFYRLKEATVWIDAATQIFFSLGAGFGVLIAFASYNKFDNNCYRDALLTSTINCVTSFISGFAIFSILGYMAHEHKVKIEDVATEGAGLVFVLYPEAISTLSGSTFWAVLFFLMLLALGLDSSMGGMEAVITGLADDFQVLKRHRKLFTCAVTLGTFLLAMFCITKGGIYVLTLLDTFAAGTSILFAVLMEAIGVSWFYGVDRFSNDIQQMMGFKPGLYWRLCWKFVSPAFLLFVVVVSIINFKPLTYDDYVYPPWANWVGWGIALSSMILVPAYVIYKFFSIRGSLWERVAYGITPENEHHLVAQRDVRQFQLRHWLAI
recorded endpoint: IC50 (µM)

(1) NC(=O)C[S+]([O-])Cc1ccccc1-c1ccc(Cl)cc1 (single isomer, unassigned; (-))
(2) NC(=O)C[S+]([O-])Cc1ccccc1-c1ccc(Cl)cc1 (single isomer, unassigned; (+))
Which has the smaller recorded IC50, 1 or 2 ? Refer to your chosen entry by its label in the reply. 1
(1: 11 µM, 2: 32 µM)

* * *

molecular target: Cytochrome P450 3A5 (Homo sapiens)
Sequence (P20815 whole entry): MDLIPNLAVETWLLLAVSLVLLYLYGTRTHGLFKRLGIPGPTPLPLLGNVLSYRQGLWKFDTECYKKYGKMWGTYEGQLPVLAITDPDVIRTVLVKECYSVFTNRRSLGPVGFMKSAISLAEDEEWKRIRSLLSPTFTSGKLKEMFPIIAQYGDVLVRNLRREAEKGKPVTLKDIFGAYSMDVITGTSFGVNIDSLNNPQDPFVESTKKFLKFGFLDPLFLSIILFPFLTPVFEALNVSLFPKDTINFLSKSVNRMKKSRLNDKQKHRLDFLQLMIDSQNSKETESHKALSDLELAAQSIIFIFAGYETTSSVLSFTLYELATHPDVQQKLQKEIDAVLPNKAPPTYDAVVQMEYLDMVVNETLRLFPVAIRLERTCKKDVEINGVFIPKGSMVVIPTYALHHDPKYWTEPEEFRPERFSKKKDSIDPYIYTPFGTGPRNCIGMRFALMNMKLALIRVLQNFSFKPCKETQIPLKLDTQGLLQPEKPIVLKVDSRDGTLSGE
recorded endpoint: IC50 (µM)
Number only, in µM; omit the unit.

What does the data say about its IC50? Entry: NC(=O)C[S+]([O-])Cc1ccccc1-c1ccc(Cl)cc1 (single isomer, unassigned; (+)) 159

* * *

Target: CYP1A2 (Homo sapiens)
Sequence (P05177 whole entry): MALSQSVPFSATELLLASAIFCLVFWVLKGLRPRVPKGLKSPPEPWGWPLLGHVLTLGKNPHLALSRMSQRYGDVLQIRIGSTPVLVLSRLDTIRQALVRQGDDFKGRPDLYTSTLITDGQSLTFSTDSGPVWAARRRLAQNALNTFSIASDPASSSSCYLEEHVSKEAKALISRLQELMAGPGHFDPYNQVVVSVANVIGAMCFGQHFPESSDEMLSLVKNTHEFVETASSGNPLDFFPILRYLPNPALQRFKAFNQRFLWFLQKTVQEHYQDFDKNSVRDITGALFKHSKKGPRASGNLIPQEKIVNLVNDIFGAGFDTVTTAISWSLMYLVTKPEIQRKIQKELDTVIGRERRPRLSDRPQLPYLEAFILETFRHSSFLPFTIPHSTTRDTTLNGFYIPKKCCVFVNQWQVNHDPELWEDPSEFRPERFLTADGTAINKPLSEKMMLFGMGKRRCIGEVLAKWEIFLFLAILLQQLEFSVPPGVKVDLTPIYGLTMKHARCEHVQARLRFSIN
Assay: Inhibition of CYP1A2 in human microsome at 100 uM
Format: ADME, microsomes
Conditions: human microsomes
recorded endpoint: inhibition at 100 µM (%)
Give a bare numeral; the unit % is implied.

Item under review: NC(=O)C[S+]([O-])Cc1ccccc1-c1ccc(Cl)cc1 (single isomer, unassigned; (-)) . Reported inhibition at 100 µM? 14

* * *

target: Sodium-dependent dopamine transporter (Rattus norvegicus, UniProt P23977); assay: Inhibition of rat DAT
Sequence (P23977 whole entry): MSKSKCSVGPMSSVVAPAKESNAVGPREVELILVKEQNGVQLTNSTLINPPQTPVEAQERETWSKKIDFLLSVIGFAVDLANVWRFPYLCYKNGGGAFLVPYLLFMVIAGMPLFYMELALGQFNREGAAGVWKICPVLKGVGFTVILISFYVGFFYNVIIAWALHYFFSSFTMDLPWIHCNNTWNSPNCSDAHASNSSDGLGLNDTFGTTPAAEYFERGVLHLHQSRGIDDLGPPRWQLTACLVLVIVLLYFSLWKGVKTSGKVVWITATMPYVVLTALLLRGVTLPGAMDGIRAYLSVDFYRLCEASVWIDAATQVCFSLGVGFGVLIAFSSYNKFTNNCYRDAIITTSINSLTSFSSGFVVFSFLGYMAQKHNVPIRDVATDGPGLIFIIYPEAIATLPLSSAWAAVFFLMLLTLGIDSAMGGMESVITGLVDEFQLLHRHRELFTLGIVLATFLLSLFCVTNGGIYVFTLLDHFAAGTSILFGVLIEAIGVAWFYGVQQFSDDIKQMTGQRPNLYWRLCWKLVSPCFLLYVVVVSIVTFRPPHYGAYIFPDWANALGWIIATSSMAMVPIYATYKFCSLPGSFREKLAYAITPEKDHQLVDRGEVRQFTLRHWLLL
recorded endpoint: IC50 (µM)

(I) NC(=O)C[S+]([O-])Cc1ccccc1-c1ccc(Cl)cc1 (single isomer, unassigned; (+))
(II) NC(=O)C[S+]([O-])Cc1ccccc1-c1ccc(Cl)cc1 (single isomer, unassigned; (-))
Please tell me which of the two, I or II , has the higher reported IC50 value. Answer = label. I
(I: 4.2 µM, II: 0.4 µM)

This collection of values is drawn from ChEMBL document CHEMBL1955765.
